B1: FUT8 (parent)
chain: YAHQPRTADEIPMEPGDIIGVAGN

- Variants of: B1
- Test details: protein stability index of a GFP-peptide fusion (GPS, HEK-293T) (PSI 1-6); higher = more stable;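 further: lentivirally expressed fusions sorted by FACS into six bins by GFP to DsRed ratio, PSI derived from sequencing read proportions per bin multiplied by bin number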
- Condition context: c terminus: a fixed tail appended
Test readout: protein stability index
Answers are plain numbers.

Before answering, review these 5 worked examples.
| Seq text | Measured value |
| --- | --- |
| YAMQPRTADEIPMEPGDIIGVAGN | 3.99 |
| YAIQPRTADEIPMEPGDIIGVAGN | 4.2 |
| YAHWPRTADEIPMEPGDIIGVAGN | 1.98 |
| YAHQPRTADEIPMEPGDIIGVAEN | 4.83 |
| YAHQPRTADEIPMEPGDIIGVAPN | 3.73 |

Need protein stability index for each of these variants.
1. YAHQPRTADEIPMEWGDIIGVAGN
2. WAHQPRTADEIPMEPGDIIGVAGN
3. YAHQPRTADEIPMEPGAIIGVAGN
4. YAHQPRTADVIPMEPGDIIGVAGN
5. YAHQPRTADEIPMEPGDAIGVAGN
6. YWHQPRTADEIPMEPGDIIGVAGN

1: 2.2; 2: 4.52; 3: 3.23; 4: 3.37; 5: 3.83; 6: 3.63

Need protein stability index for each of these variants.
1. YAHQPRTAVEIPMEPGDIIGVAGN
2. YAHQPRTADEIPMEPGDIIGVAGQ
3. YAHQPRTADEQPMEPGDIIGVAGN
4. YAHQPRTADEIPMEPGQIIGVAGN

1. 2.52
2. 4.03
3. 4.46
4. 4.14

Need protein stability index for each of these variants.
1. YAHQPRTADEIPMEPGDIIGGAGN
2. YAHQPRTADRIPMEPGDIIGVAGN
3. YAHQPRTADEIPMEPGIIIGVAGN
4. EAHQPRTADEIPMEPGDIIGVAGN
5. YAHQPRTADEIPMEPGTIIGVAGN
6. YAHQPRTADEIPMEPGDIIGLAGN
7. YAHQPRTADGIPMEPGDIIGVAGN
8. YAHQPRTADEIPMEPGDIIGVDGN

1. 4.29
2. 2.96
3. 2.57
4. 4.92
5. 3.38
6. 4.03
7. 2.53
8. 4.19

Need protein stability index for each of these variants.
1. YAHQPRTADEIPMWPGDIIGVAGN
2. YAHQPRTADEIPMSPGDIIGVAGN
3. YAHQPRTADEIPMEPGDIEGVAGN
4. YAHQPRTADEIPMEPGDIDGVAGN

1. 2.1
2. 3.29
3. 5.21
4. 5.07
